Would you mind telling me the reported IC50 of each entry?
assay-system: Human immunodeficiency virus type 1 reverse transcriptase (Human immunodeficiency virus 1)
measurement-protocol: Dose required to inhibit HIV-1 recombinant reverse transcriptase (rRT) activity by 50%.

Problem: Given CCC(C)Sc1nc(O)c(C)c(Cc2cccc(C)c2)n1 (stereo unspecified) , state its recorded IC50.
Result: 2700 nM

Problem: Given "CSc1nc(O)c(C)c(Cc2ccccc2)n1" , state its recorded IC50.
Result: 4900 nM

Problem: Given CCC(C)Sc1nc(O)cc(Cc2cccc(C)c2)n1 (stereo unspecified) , state its recorded IC50.
Result: 1200 nM

Problem: Given "Cc1cccc(Cc2cc(O)nc(SC3CCCCC3)n2)c1" , state its recorded IC50.
Result: 2600 nM

Problem: Given "Cc1cccc(Cc2cc(O)nc(SC3CCCC3)n2)c1" , state its recorded IC50.
Result: 2600 nM

Problem: Given "Oc1cc(Cc2ccccc2)nc(SC2CCCC2)n1" , state its recorded IC50.
Result: 2800 nM

Problem: Given "CC(C)SC1=N/C(=C/c2ccccc2)C(C)(C)C(=O)N1" , state its recorded IC50.
Result: 4300 nM

Problem: Given "Cc1c(O)nc(S)nc1Cc1ccccc1" , state its recorded IC50.
Result: > 10000 nM

Problem: Given "CC1(C)C(=O)NC(SC2CCCCC2)=N/C1=C/c1ccccc1" , state its recorded IC50.
Result: > 10000 nM

Problem: Given CCC(C)Sc1nc(O)c(C)c(Cc2ccccc2)n1 (stereo unspecified) , state its recorded IC50.
Result: 2400 nM

Problem: Given "CSc1nc(O)cc(Cc2cccc(C)c2)n1" , state its recorded IC50.
Result: > 10000 nM

Problem: Given "Cc1cccc(Cc2nc(SC3CCCCC3)nc(O)c2C)c1" , state its recorded IC50.
Result: 1300 nM

Problem: Given "Cc1cccc(Cc2cc(O)nc(SCC(C)C)n2)c1" , state its recorded IC50.
Result: 8400 nM

Problem: Given "CC(C)CSC1=N/C(=C/c2ccccc2)C(C)(C)C(=O)N1" , state its recorded IC50.
Result: 4600 nM

Problem: Given "CSC1=N/C(=C/c2ccccc2)C(C)(C)C(=O)N1" , state its recorded IC50.
Result: 6100 nM

Problem: Given "Cc1c(O)nc(SCC(C)C)nc1Cc1ccccc1" , state its recorded IC50.
Result: 2200 nM

Problem: Given "Cc1cccc(Cc2nc(S)nc(O)c2C)c1" , state its recorded IC50.
Result: > 10000 nM

Problem: Given "Cc1cccc(Cc2nc(SC(C)C)nc(O)c2C)c1" , state its recorded IC50.
Result: 2500 nM

Problem: Given CCC(C)SC1=N/C(=C/c2ccccc2)C(C)(C)C(=O)N1 (stereo unspecified) , state its recorded IC50.
Result: 4300 nM

Problem: Given "Cc1cccc(Cc2nc(SCC(C)C)nc(O)c2C)c1" , state its recorded IC50.
Result: 4600 nM

Problem: Given "Cc1c(O)nc(SC2CCCCC2)nc1Cc1ccccc1" , state its recorded IC50.
Result: 4300 nM

Problem: Given "Cc1cccc(Cc2cc(O)nc(SC(C)C)n2)c1" , state its recorded IC50.
Result: 2900 nM

Problem: Given "CSc1nc(O)c(C)c(Cc2cccc(C)c2)n1" , state its recorded IC50.
Result: 2500 nM

Problem: Given "CC1(C)C(=O)NC(SC2CCCC2)=N/C1=C/c1ccccc1" , state its recorded IC50.
Result: > 10000 nM

Problem: Given "Cc1c(O)nc(SC(C)C)nc1Cc1ccccc1" , state its recorded IC50.
Result: 2500 nM

Problem: Given "CSc1nc(O)cc(Cc2ccccc2)n1" , state its recorded IC50.
Result: > 10000 nM
